Data origin, for the record: patent US20240228490A1

# MEASUREMENT_PROTOCOL: PK part of PK/PD study in MDA-MB-436 subcutaneous xenograft model: plasma and tumor concentration
# Type: in vivo, BALB/c nude mice
# MEASUREMENT_CONDITIONS: female, BALB/c nude, mouse, tumor tissue; single oral 0.3 mg/kg, 16 h; read-out: Mean tumor tissue concentration
READOUT_KIND: concentration at 16 h (ng/g)
# value in ng/g; strip the unit string

Inquiry: Any idea what its concentration at 16 h is? The compound is CCc1cc2ncc(CN3CCN(c4ccc(C(=O)NC)nc4)CC3)cc2[nH]c1=O [AZD5305, reference compound]
Reply text: 94

----------
# MEASUREMENT_PROTOCOL: PK part of PK/PD study in MDA-MB-436 subcutaneous xenograft model: plasma and tumor concentration
# Assay type: in vivo, BALB/c nude mice
# MEASUREMENT_CONDITIONS: female, BALB/c nude, mouse, tumor tissue; single oral 0.3 mg/kg, 48 h; read-out: Mean tumor tissue concentration
READOUT_KIND: concentration at 48 h (ng/g)
# value in ng/g; strip the unit string

Inquiry: Any idea what its concentration at 48 h is? The molecule is CCc1cc2ncc(CN3CCN(c4ccc(C(=O)NC)nc4)CC3)cc2[nH]c1=O [AZD5305, reference compound]
Reply text: 44

----------
# MEASUREMENT_PROTOCOL: PK part of PK/PD study in MDA-MB-436 subcutaneous xenograft model: plasma and tumor concentration
# Type: in vivo, BALB/c nude mice
# MEASUREMENT_CONDITIONS: female, BALB/c nude, mouse, plasma; single oral 0.3 mg/kg, 6 h; read-out: Mean plasma concentration
READOUT_KIND: concentration at 6 h (ng/mL)
# value in ng/mL; strip the unit string

Inquiry: Any idea what its concentration at 6 h is? The compound is CCc1cc2ncc(CN3CCN(c4ccc(C(=O)NC)nc4)CC3)cc2[nH]c1=O [AZD5305, reference compound]
Reply text: 713

----------
# MEASUREMENT_PROTOCOL: Pharmacokinetic assay in Balb/C mice
# MEASUREMENT_CONDITIONS: male, mouse, plasma, po, 1 mg/kg
Assignment: determine reported half-life for the given compounds.
# value in h; strip the unit string

Inquiry: Any idea what its half-life is? The compound is `CCc1cc2ncc(CN3CC=C(c4ccc(C(=O)NC)nc4F)CC3)cc2[nH]c1=O`
Reply text: 4.6

Inquiry: Any idea what its half-life is? The compound is `CCc1cc2ncc(CN3CCN(c4cnc5c(NC)nccc5c4)CC3)cc2[nH]c1=O`
Reply text: 3.7

Inquiry: Any idea what its half-life is? The compound is `CCc1cc2ncc(CN3CC=C(c4ccc(C(=O)NC5CC5)nc4)CC3)cc2[nH]c1=O`
Reply text: 3.7

Inquiry: Any idea what its half-life is? The compound is `CCc1cc2ncc(CN3CC=C(c4ccc(C(=O)NC)nc4)CC3)cc2[nH]c1=O`
Reply text: 6.9

----------
# MEASUREMENT_PROTOCOL: Bidirectional permeability through Caco-2 cell model
# MEASUREMENT_CONDITIONS: human
READOUT_KIND: Papp A→B at 2 h, 10 μM (nm/s)
# value in nm/s; strip the unit string

Inquiry: Any idea what its Papp A→B at 2 h, 10 μM is? The molecule is `CCc1cc2ncc(CN3CC=C(c4ccc(C(=O)NC)nc4)CC3)cc2[nH]c1=O`
Reply text: 128

Inquiry: Any idea what its Papp A→B at 2 h, 10 μM is? The molecule is `CCc1cc2ncc(CN3CC=C(c4ccc(C(=O)NC5CC5)nc4)CC3)cc2[nH]c1=O`
Reply text: 122

Inquiry: Any idea what its Papp A→B at 2 h, 10 μM is? The molecule is `CCc1cc2ncc(CN3CCC(c4ccc(C(=O)NC)nc4)CC3)cc2[nH]c1=O`
Reply text: 94.2

Inquiry: Any idea what its Papp A→B at 2 h, 10 μM is? The molecule is `CCc1cc2ncc(CN3CC=C(c4ccc(C(=O)NC)nc4F)CC3)cc2[nH]c1=O`
Reply text: 148

Inquiry: Any idea what its Papp A→B at 2 h, 10 μM is? The molecule is `CCc1cc2ncc(CN3CCN(c4cnc5c(NC)nc(C)cc5c4)CC3)cc2[nH]c1=O`
Reply text: 52.3

Inquiry: Any idea what its Papp A→B at 2 h, 10 μM is? The molecule is `CCc1cc2ncc(CN3CCN(c4cnc5c(NC)nccc5c4)CC3)cc2[nH]c1=O`
Reply text: 71.5

----------
# MEASUREMENT_PROTOCOL: PK part of PK/PD study in MDA-MB-436 subcutaneous xenograft model: plasma and tumor concentration
# Assay type: in vivo, BALB/c nude mice
# MEASUREMENT_CONDITIONS: female, BALB/c nude, mouse, tumor tissue; single oral 0.3 mg/kg, 8 h; read-out: Mean tumor tissue concentration
READOUT_KIND: concentration at 8 h (ng/g)
# value in ng/g; strip the unit string

Inquiry: Any idea what its concentration at 8 h is? The compound is CCc1cc2ncc(CN3CCN(c4ccc(C(=O)NC)nc4)CC3)cc2[nH]c1=O [AZD5305, reference compound]
Reply text: 95

----------
Assignment: determine reported efflux ratio at 2 h, 10 μM for the given compounds.
# MEASUREMENT_PROTOCOL: Bidirectional permeability through Caco-2 cell model
# MEASUREMENT_CONDITIONS: human
The response must contain the number and no unit.

Inquiry: Any idea what its efflux ratio at 2 h, 10 μM is? The compound is CCc1cc2ncc(CN3CCN(c4cnc5c(NC)nccc5c4)CC3)cc2[nH]c1=O [Example 3]
Reply text: 3.4

Inquiry: Any idea what its efflux ratio at 2 h, 10 μM is? The compound is CCc1cc2ncc(CN3CC=C(c4ccc(C(=O)NC)nc4F)CC3)cc2[nH]c1=O [Example 36]
Reply text: 1.1

Inquiry: Any idea what its efflux ratio at 2 h, 10 μM is? The compound is CCc1cc2ncc(CN3CCN(c4cnc5c(NC)nc(C)cc5c4)CC3)cc2[nH]c1=O [Example 72]
Reply text: 2.5

Inquiry: Any idea what its efflux ratio at 2 h, 10 μM is? The compound is CCc1cc2ncc(CN3CC=C(c4ccc(C(=O)NC5CC5)nc4)CC3)cc2[nH]c1=O [Example 29]
Reply text: 1.6

----------
# MEASUREMENT_PROTOCOL: PK part of PK/PD study in MDA-MB-436 subcutaneous xenograft model: plasma and tumor concentration
# Type: in vivo, BALB/c nude mice
# MEASUREMENT_CONDITIONS: female, BALB/c nude, mouse, plasma; single oral 0.3 mg/kg, 8 h; read-out: Mean plasma concentration
READOUT_KIND: concentration at 8 h (ng/mL)
# value in ng/mL; strip the unit string

Inquiry: Any idea what its concentration at 8 h is? The molecule is CCc1cc2ncc(CN3CCN(c4ccc(C(=O)NC)nc4)CC3)cc2[nH]c1=O [AZD5305, reference compound]
Reply text: 584

----------
Assignment: determine reported Tmax for the given molecules.
# MEASUREMENT_PROTOCOL: Pharmacokinetic assay in Balb/C mice
# MEASUREMENT_CONDITIONS: male, mouse, plasma, po, 1 mg/kg
# value in min; strip the unit string

Inquiry: Any idea what its Tmax is? The molecule is CCc1cc2ncc(CN3CC=C(c4ccc(C(=O)NC5CC5)nc4)CC3)cc2[nH]c1=O [Example 29]
Reply text: 30

Inquiry: Any idea what its Tmax is? The molecule is CCc1cc2ncc(CN3CCN(c4cnc5c(NC)nccc5c4)CC3)cc2[nH]c1=O [Example 3]
Reply text: 30

Inquiry: Any idea what its Tmax is? The molecule is CCc1cc2ncc(CN3CC=C(c4ccc(C(=O)NC)nc4F)CC3)cc2[nH]c1=O [Example 36]
Reply text: 30

Inquiry: Any idea what its Tmax is? The molecule is CCc1cc2ncc(CN3CC=C(c4ccc(C(=O)NC)nc4)CC3)cc2[nH]c1=O [Example 1]
Reply text: 60

----------
# MEASUREMENT_PROTOCOL: in vitro
# MEASUREMENT_CONDITIONS: human, Caco-2
Assignment: determine reported efflux ratio at 2 h, 10 μM for the given molecules.
The response must contain the number and no unit.

Inquiry: Any idea what its efflux ratio at 2 h, 10 μM is? The molecule is CNC(=O)c1ccc(C2=CCN(Cc3cnc4cc(C5CC5)c(=O)[nH]c4c3)CC2)cn1 [Example 45]
Reply text: 1.6

Inquiry: Any idea what its efflux ratio at 2 h, 10 μM is? The molecule is CCc1cc2ncc(CN3CC=C(c4ccc(C(=O)NC)nc4C#N)CC3)cc2[nH]c1=O [Example 35]
Reply text: 3

----------
# MEASUREMENT_PROTOCOL: PK part of PK/PD study in MDA-MB-436 subcutaneous xenograft model: plasma and tumor concentration
# Assay type: in vivo, BALB/c nude mice
# MEASUREMENT_CONDITIONS: female, BALB/c nude, mouse, plasma; single oral 0.3 mg/kg, 48 h; read-out: Mean plasma concentration
READOUT_KIND: concentration at 48 h (ng/mL)
# value in ng/mL; strip the unit string

Inquiry: Any idea what its concentration at 48 h is? The compound is CCc1cc2ncc(CN3CCN(c4ccc(C(=O)NC)nc4)CC3)cc2[nH]c1=O [AZD5305, reference compound]
Reply text: 10
